- Test system: panel of 140 standard cancer cell lines
- Assay overview: ProliFiler-140 cancer cell line screen (CellTiterGlo, 72 h)
- Assay type: cell-based
- Experimental setup: Homo sapiens, SW1783, SW-1783 (Brain); read-out: IC50 [M] (ProliFiler-140)
Parameter: IC50 (M)
Number only, in M; omit the unit.

## Task Answer with IC50 of COc1cccc2c1C(=O)c1c(O)c3c(c(O)c1C2=O)C[C@@](O)(C(=O)CO)C[C@@H]3O[C@H]1C[C@H](N)[C@H](O)[C@H](C)O1 [doxorubicin, reference compound] measured for panel of 140 standard cancer cell lines.
## Result 2.99e-07

* * *

- Tested on: panel of 140 standard cancer cell lines
- Assay overview: ProliFiler-140 cancer cell line screen (CellTiterGlo, 72 h)
- Format: cell-based
- Experimental setup: Homo sapiens, T98G, read-out: IC50 [M] (ProliFiler-140), T98G (Brain)
Parameter: IC50 (M)
Unit M implied. Number only.

## Task Tell us which IC50 value is on record for COc1cc2cc(C(=O)N3C[C@@H](CCl)c4c3cc(OC(=O)N3CCN(C(=O)CCC(=O)N5CCN(C)CC5)[C@H]5CSSC[C@H]53)c3ccccc43)[nH]c2c(OC)c1OC [P-SS66C-CBI-TMI]
## Result 8.08e-08

Origin of measurements: paper PMC10141580
